# study-system: T1, DR3-8i (human)
# T1 construct: also called purified monomeric DR3-8i antigen protein
# T1 chain: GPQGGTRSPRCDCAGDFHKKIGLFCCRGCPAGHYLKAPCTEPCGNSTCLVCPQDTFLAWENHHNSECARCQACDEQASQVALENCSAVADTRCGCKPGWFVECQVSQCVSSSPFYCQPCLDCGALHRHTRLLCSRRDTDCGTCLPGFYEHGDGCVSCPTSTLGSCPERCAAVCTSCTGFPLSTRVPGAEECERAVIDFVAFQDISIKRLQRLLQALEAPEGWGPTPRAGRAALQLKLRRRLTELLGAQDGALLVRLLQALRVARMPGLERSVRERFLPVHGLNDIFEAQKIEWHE
# test-protocol: BLI, IgG captured on protein A, DR3-8i in solution; Average
readout-label: Kd (nM)
Reply with just the number (in nM).

binder	Kd [nM]
VHg6/VLg2 (antibody, human IgG1, V domains shown, human IgG1) VH: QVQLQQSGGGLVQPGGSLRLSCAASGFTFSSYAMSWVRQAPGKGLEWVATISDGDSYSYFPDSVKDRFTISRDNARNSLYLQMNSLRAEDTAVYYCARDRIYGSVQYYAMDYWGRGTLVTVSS VL: DIQLTQSPSSLSASVGDRVTITCRASESVEFSGTSLMQWYQQKAGLAPKLLIYAASNVESGVPSRFSGSGSGTDFTLTISSLQPEDFGTYYCQQSRKLPYTFGQGTRLEIK	0.193
VHg1/VLg2 (antibody, human IgG1, V domains shown, human IgG1) VH: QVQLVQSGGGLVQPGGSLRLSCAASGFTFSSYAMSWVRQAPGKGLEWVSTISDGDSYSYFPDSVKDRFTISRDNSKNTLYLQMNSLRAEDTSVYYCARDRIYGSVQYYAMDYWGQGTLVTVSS VL: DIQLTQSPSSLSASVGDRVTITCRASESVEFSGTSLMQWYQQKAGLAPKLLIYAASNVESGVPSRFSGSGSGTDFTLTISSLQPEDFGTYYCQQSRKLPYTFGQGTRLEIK	0.159
VHg10/VLg6 (antibody, human IgG1, V domains shown, human IgG1) VH: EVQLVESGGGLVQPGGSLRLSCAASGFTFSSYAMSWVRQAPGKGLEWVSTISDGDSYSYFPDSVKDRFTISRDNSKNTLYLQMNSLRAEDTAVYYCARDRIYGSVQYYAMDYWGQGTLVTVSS VL: DVVMTQSPPSLPVTPGEPASISCRASESVEFSGTSLMQWYLQKPGQSPQVLIYAASNVESGVPDRFSGSGSGTDFTLKISRVEAEDVGVYYCQQSRKLPYTFGQGTRLEIK	0.326
VHg6/VLg4 (antibody, human IgG1, V domains shown, human IgG1) VH: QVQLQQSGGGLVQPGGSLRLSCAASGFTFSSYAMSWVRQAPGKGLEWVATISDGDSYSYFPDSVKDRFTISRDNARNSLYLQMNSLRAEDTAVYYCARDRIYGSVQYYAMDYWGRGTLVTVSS VL: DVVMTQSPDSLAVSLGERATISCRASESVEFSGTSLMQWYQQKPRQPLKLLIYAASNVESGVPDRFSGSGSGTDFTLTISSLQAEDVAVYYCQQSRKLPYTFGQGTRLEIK	0.198

Consider the additional binder presented here.
Exercise: For VHg3/VLg13 (antibody, human IgG1, V domains shown, human IgG1) VH: EVQLVQSGGGLVKPGGSLRLSCAASGFKFSSYAMSWVRQAPGKGLEWLSTISDGDSYSYFPDSVKDRFIISRDNAKNSLYLQMNSLRVEDTGVYYCARDRIYGSVQYYAMDYWGQGTLVTVSS VL: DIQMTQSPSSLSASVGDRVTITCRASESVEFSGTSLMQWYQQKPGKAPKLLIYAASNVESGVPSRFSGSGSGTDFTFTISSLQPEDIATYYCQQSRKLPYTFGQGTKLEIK , write its Kd.
Solution: 0.427

Data origin, for the record: patent WO2025083273A1
